Ref: patent US20230096051A1

I'd be grateful if you could share measured concentration at 10 min for these entries.
- assay_protocol: In vivo rat tracer distribution and brain uptake (LC-MS/MS)
- Parameters: species or system Sprague-Dawley rats
- recorded_conditions: Sprague-Dawley, hippocampus, iv, 10 μg/kg i.v., 10 min, read-out: Mean tracer concentration ± SEM, Hippocampus
Answer format: numeric, ng/g implied, no suffix.

What value of concentration at 10 min has been recorded for this entry: `Cc1cc(N2CC(F)C2)cc(OCc2ccc([C@@H](C)[C@@]3(C)C(=O)NC[C@@H]3CF)cc2)n1` 1.91

Item `Cc1cc(N2CC(F)C2)cc(OCc2ccc([C@@H](C)[C@@]3(C)C(=O)NC[C@@H]3C)cc2)n1` has what recorded concentration at 10 min? 4.64

Return reported concentration at 10 min; argument: `Cc1cc(N2CCC2)cc(OCc2ccc([C@@H](C)[C@@]3(C)C(=O)NC[C@@H]3CF)cc2)n1` 2.33
